Hey, just so you know, these numbers are from paper PMC12040169.

# TEST NAME: in vitro
# REPORTED CONDITIONS: human, hela cells, % viability
Consider the following compounds and their measured viability at 28.5 h, 10 µM readings.

| COMPOUND | viability at 28.5 h, 10 µM (%) |
| --- | --- |
| CCCOC1CCCN(c2nccc(-c3cc(C(=O)O)ccn3)n2)C1 (stereo not shown) | 101 |
| Cc1ccc(C2(O)CCN(Cc3c(C)nc4cc(C)ccn34)CC2)cc1 | 80.5 |
| O=C(CSS(=O)(=O)O)NCc1ccccc1 [CBK260897N] | 105 |
| CCSc1nc(=O)c2c(n1C)NC(=O)CC2c1ccccc1 (stereo not shown) | 107 |
| Cc1cccc(-c2ncc(C(=O)NCCCN3CCCC3=O)cc2-c2ccco2)c1 | 96.5 |
| CN(CCOc1ccccc1)c1nccnc1N1CCNCC1 [CBK000035F] | 109 |
| NS(=O)(=O)c1ccc(NC2=NC(=O)C(CC(=O)Nc3ccccc3)S2)cc1 (stereo not shown) | 98.2 |
| COc1ccc(N(C)C(=O)N[C@@H]2CC[C@@]3(c4ccc(OC)c(OC)c4)CCN(C)[C@H]3C2)cc1 [CBK045653T] | 112 |
| CCCNC(=O)Cn1ncc2c3sc(C)cc3n(CC)c2c1=O | 85.8 |
| Fc1cccc2sc(Nc3nc(-c4ccccn4)cs3)nc12 | 108 |
| COCC(C)NCc1ccccc1C (stereo not shown) | 115 |
| Cc1ccc(NC(=O)c2ccc(-n3nncc3C)cc2)cc1 | 80.9 |
| COc1ccc(C(=O)N2CCC3(CCCN(Cc4nc5ccccc5[nH]4)C3)C2)cc1OC (stereo not shown) | 93.9 |
| COc1ccc2[nH]c3c(c2c1)CCNC31CCN(C(=O)COc2ccccc2)C1 (stereo not shown) | 88.8 |
| CC[C@H]1CN(C(=O)c2ccnc(Cl)c2)CC[C@H]1CC(=O)NCc1ccc2c(c1)OCO2 | 110 |
| CCOc1cccc(N2C(=O)CC(N3CCC(C(N)=O)(N4CCCCC4)CC3)C2=O)c1 (stereo not shown) | 99 |
| CC1CCN(Cc2ccc(-c3nnn(CC(=O)NCc4ccc(C(F)(F)F)cn4)n3)cc2)CC1 [CBK149722T] | 104 |
| CC(C)(CO)CNc1nc(-c2cccnc2)cnc1N | 100 |
| CCc1nc(CNC(=O)c2cc3cc(F)ccc3n2C)no1 | 93.6 |

* * *

# TEST NAME: in vitro
# REPORTED CONDITIONS: human, hela cells, % viability

| COMPOUND | viability at 28.5 h, 10 µM |
| --- | --- |
| COc1cccc(CC(=O)N2CCCC2c2nc3ccccc3[nH]2)c1 (stereo not shown) | 99.8% |
| CC(=O)N1CCc2sccc2C1c1ccccc1NCc1ccoc1 (stereo not shown) | 91.6% |
| Cc1c(C(=O)N2CCCC2C(N)=O)nnn1Cc1ccc(F)cc1F (stereo not shown) | 94.5% |
| Cn1cc(CCC(=O)N2CCN(Cc3ccccn3)CC2)cn1 | 113% |
| CN(C)CCN(Cc1ccncc1)Cc1ccc(F)cc1F | 98.2% |
| O=C(COc1cccnc1)N1CCN(C(=O)c2ccco2)CC1 | 96.7% |
| CN1CCN(CCCOc2ccccc2OCc2ccccc2)CC1 [CBK269630C] | 90.4% |
| N#Cc1c(NC(=O)Cn2cnc3sc(-c4ccccc4)cc3c2=O)sc2c1CCC2 | 95.2% |
| O=C(O)c1cccc(N(CCO)CCO)c1 | 93.6% |
| CC(C)[C@H](CO)Nc1nc(-c2ccc(CCC(=O)O)cc2)cn2ccnc12 | 92.7% |
